# MEASUREMENT_PROTOCOL: Toxicity in sheep erythrocytes assessed as intrinsic hemolytic activity
# Type: cell-based, Ovis aries, Erythrocyte
# EXPERIMENTAL_CONDITIONS: read-out: ED50 (the source's name)
Structures can show the parent of a compound that is named as a salt.
Recorded HC50 by entry

Solved entries (count: 2):
COMPOUND	HC50
CC1(C)[C@@H](OS(=O)(=O)O)CC[C@]2(C)[C@H]3CC[C@@H]4[C@H]5[C@H](C6(C)CC6(Cl)Cl)CC[C@]5(COS(=O)(=O)O)CC[C@@]4(C)[C@]3(C)CC[C@@H]12 (stereo partly drawn)	85 µM
C[C@H]1[C@H](C)CC[C@]2(C(=O)O)CC[C@]3(C)C(=CC[C@@H]4[C@@]5(C)CC[C@H](OS(=O)(=O)O)C(C)(C)[C@@H]5CC[C@]43C)[C@H]12 [URSOLIC ACID SULFATE]	> 900 µM

Next item in the queue.
Consider C=C(C)[C@@H]1CC[C@]2(COP(=O)(O)O)CC[C@]3(C)[C@H](CC[C@@H]4[C@@]5(C)CC[C@H](OP(=O)(O)O)C(C)(C)[C@@H]5CC[C@]43C)[C@@H]12 [BETULIN DIPHOSPHATE] . Its measured HC50 is > 800 µM

----------
# MEASUREMENT_PROTOCOL: Toxicity in sheep erythrocytes assessed as intrinsic hemolytic activity
# Assay type: cell-based, Ovis aries, Erythrocyte
# EXPERIMENTAL_CONDITIONS: read-out: ED50 (the source's name)
Counter-ions that a name gives are not always drawn.
Recorded HC50 by entry

Solved entries (count: 5):
COMPOUND	MEASURE_NAME	OBSERVED_VALUE
C[C@H](CCC(=O)O)[C@H]1CC[C@H]2[C@@H]3CC[C@@H]4C[C@H](OS(=O)(=O)O)CC[C@]4(C)[C@H]3C[C@H](OS(=O)(=O)O)[C@]12C [DEOXYCHOLIC ACID DISULFATE]	HC50	> 1600 µM
C[C@H](CCC(=O)O)[C@H]1CC[C@H]2[C@@H]3[C@H](OS(=O)(=O)O)C[C@@H]4C[C@H](OS(=O)(=O)O)CC[C@]4(C)[C@H]3C[C@H](OS(=O)(=O)O)[C@]12C [CHOLIC ACID TRISULFATE]	HC50	> 1400 µM
C=C(C)[C@@H]1CC[C@]2(C(=O)O)CC[C@]3(C)[C@H](CC[C@@H]4[C@@]5(C)CC[C@H](OS(=O)(=O)O)C(C)(C)[C@@H]5CC[C@]43C)[C@@H]12 [BETULINIC ACID SULFATE]	HC50	> 900 µM
CC1(C)CC[C@]2(C(=O)O)CC[C@]3(C)C(=CCC4[C@@]5(C)CC[C@H](OS(=O)(=O)O)C(C)(C)[C@@H]5CC[C@]43C)[C@@H]2C1 (some centres not stated) [OLEANOLIC ACID SULFATE]	HC50	15 µM
C[C@]12CC[C@H]3[C@@H](CC=C4C[C@@H](OS(=O)(=O)O)CC[C@@]43C)[C@@H]1CC[C@@H]2C(=O)O	HC50	> 1600 µM

Consider C=C(C)[C@@H]1CC[C@]2(COS(=O)(=O)O)CC[C@]3(C)[C@H](CC[C@@H]4[C@@]5(C)CC[C@H](OS(=O)(=O)O)C(C)(C)[C@@H]5CC[C@]43C)[C@@H]12 [BETULIN DISULFATE] . Its measured HC50 is 850 µM

Consider "C[C@H](CCC(=O)O)[C@H]1CC[C@H]2[C@@H]3CC=C4C[C@@H](OS(=O)(=O)O)CC[C@]4(C)[C@H]3CC[C@]12C" . Its measured HC50 is > 400 µM
